- system name: CsfD, tip adhesin of CS4 fimbriae on wild type ETEC strain BANG10-SP (Escherichia coli (ETEC) strain BANG10-SP)
- assay overview: cell-based or functional assay
Below: a set of entries, each annotated with reported MIC in HAI.
metric name: MIC in HAI

>  <binder>
anti-CfaE mouse mAb P1F9 (antibody, V domains shown) VH: QVQLQQPGAELVKPGASVKLSCKASGYTFTSYWMHWVRQRPGQGLDWIGEIDPSDSYINYNQKFKGKATLTVDKSSSTAYMQLSSLTSEDSAVYYCGRKSLGVSVLAYWGQGTPVTVSA VL: DIVMTQSHKFMSTSVGDRVSISCTASQDVNAAVAWYQQKPGQSPKLLIYWASTRHTGVPDRFTGSGSGTDYTLTISSVQAEDLALYYCQQHYSTPLTFGAGTKLELK

>  <experimental result>
> 250 mg/L

$$$$
>  <binder>
anti-CsbD mouse mAb P7C2 (antibody, V domains shown) VH: EVKLEESGGGLVQPGGSMKLSCAASGFTFSDAWMDWVRQSPEKGLEWVGKIRSEINDHATYYAESVKGRFTISRDDSKSGVYLQMNNLRAEDTGIYYCARDGYYGAMDYWGQGTSVTVSS VL: DVQITQSPSYLAASPGETITINCRSNKSISRYLAWYQEKPGKTNKLLIYSGSTLQSGIPSRFSGSGSNTDFTLTISSLEPEDFAMYYCQQHNEYPYTFGSGTKLEIK

>  <experimental result>
> 250 mg/L

$$$$
>  <binder>
anti-CotD mouse mAb P6B8 (antibody, V domains shown) VH: QVTLKESGPGILQPSQTLSLTCSFSGFSLSTSGMGVGWIRQPSGKGLEWLSHIWWDDEKRYNPALKSRLTISKDTSSNQVFLKIASVDTADTATYYCARIGDRSGHAGFVYWGQGTLVTVSA VL: DIKMTQSPSSMYASLGERVTITCKASQDINSYLSWFQQKPGKSPKTLIYRANRLVDGVPSRFSGSGSGQDYSLTISSLEYEDMGTYYCLQYDEFPYTFGGGTKLEIK

>  <experimental result>
> 250 mg/L

$$$$
